Where these numbers come from: ChEMBL document CHEMBL3352793

# ASSAY NOTES: in vivo
# ASSAY CONDITIONS: rat, in vivo, po, 10 mg/kg
METRIC NAME: AUC(0-t) at 6 h

Some solved cases for reference:
{"SMILES CODE": "COc1ccc2c(c1)NC1(CCN(C(=O)c3cc(C)cc(C)c3)CC1)c1cccn1-2", "AUC(0-t) at 6 h": "0.788 µM·h"}
{"SMILES CODE": "N#Cc1ccc(C(=O)N2CCC3(CC2)Nc2cc(OC(F)(F)F)ccc2-n2cccc23)cc1", "AUC(0-t) at 6 h": "11.7 µM·h"}
{"SMILES CODE": "COc1ccc2c(c1)NC1(CCN(C(=O)c3ccc(C)cc3)CC1)c1cccn1-2", "AUC(0-t) at 6 h": "17.2 µM·h"}

Enquiry: Recorded AUC(0-t) at 6 h for `N#Cc1ccc(C(=O)N2CCC3(CC2)Nc2cc(C(F)(F)F)ccc2-n2cccc23)cc1` , please?
Return: 15.2 µM·h
